READOUT: melting point (°C)

MOLECULE | READOUT | OBS_VALUE
OCC12CO[C@H](c3ccc(C(F)(F)F)cc3)N1[C@@H](c1ccc(C(F)(F)F)cc1)OC2 (racemic) [TH-242B] | melting point | 120
OCC1(CO)COC(c2ccc(C(F)(F)F)cc2)N1 (racemic) [TH-OPENTFM] | melting point | 98
OCC1(CO)COC(c2ccc(F)cc2)N1 (racemic) [TH-OPEN] | melting point | 89
OC[C@]12CO[C@H](c3ccc(C(F)(F)F)cc3)N1[C@H](c1ccc(C(F)(F)F)cc1)OC2 [TH-242A] | melting point | 102

Origin of the recorded values: patent US8318787B2
